Test system: MS2 coat protein
Test: apparent Kd, MS2 coat protein; higher = weaker binding; RNA-MaP array; theophylline 2 mM where present
Conditions: ligand present: theophylline; designed as: OFF switch for theophylline
observable: apparent Kd (µM)
Note: unit µM is implicit; provide only the numeric part.

For AUAUGAUCAUGUGAUACCAGAAAUGGUAUUCCUCGCUGGAUUACAUGAGGAUCACCCAUGUUCCCUUGGCAGCAUAUGAUCAUAU the sequence record lists apparent Kd as 0.269

Notebook: UGACAUUGCUCAGAUACCAGACAUGAGGAUCACCCAUGUACCAAGAAAACGUACAAUAAUGUCCCUUGGCAGCUGAGCAAUGUCU , apparent Kd read as 0.549

According to the records, this sequence AUAUGAUCAUAGGAUACCAGAAAUGGUAUUCCUUUAUUUCUUACAUGAGGAUCACCCAUGUUCCCUUGGCAGCUUAUGAUCAUAU displays apparent Kd of 0.115

// recorded apparent Kd for GAGCUGAUGUAGAGCGAAUAUACGAGAGAUACCAGUACAGAAAUGUACCCUUGGCAGCUCAACUUUACAUGAGGAUCACCCAUGU : 0.0153

----------
Kindly supply the reported apparent Kd values for the records listed here.
System: MS2 coat protein
Assay: apparent Kd, MS2 coat protein; higher = weaker binding; RNA-MaP array; theophylline 2 mM where present
Conditions: designed as: OFF switch for theophylline; no ligand
Just the number in nM, nothing appended.

Per the reported MS2 coat protein data, GAGGAUCAAGUAGAUACCAGCACAUGAGGAUCACCCAUGUAAUGGUGUCCCUCAAGAACGUGCCCUUGGCAGCUACUAUCAAAAU has apparent Kd of 16.3

Entry UAUAUAUAUAUGGAUACCAGCAGAGAAAACGUUUAUCCUAACAUGAGGAUCACCCAUGUAUGCCCUUGGCAGCUGUGUAUAUAUA , MS2 coat protein data, apparent Kd value: 22.2

Tested system MS2 coat protein; apparent Kd recorded for ACAUGAGGAUCACCCAUGUUCCUCAUUGAUACCAGUGAAUUUAGACGCCCUUGGCAGCGAGUUUUUUUAGAAGAAGUUUUUUUUU was 782

For UUAUUUAUAAUGGAUACCAGUGCUGUGGCCCGGCAUCCUGACAUGAGGAUCACCCAUGUGUACCCUUGGCAGCUGUUAUGGGUUU on MS2 coat protein, measured apparent Kd was 22.6

----------
System: MS2 coat protein
Assay: apparent Kd, MS2 coat protein; higher = weaker binding; RNA-MaP array
Conditions: designed as: OFF switch for flavin mononucleotide; no ligand
Output 1.0 for apparent Kd not less than 20 nM; output 0.0 otherwise.

Q: Entry UGAGAAGUAGGAUAUAAGUACACCUACAUGAGGAUCACCCAUGUACCUAACGUAGCCGAUUUAGAAGGACUGUCAA : is its apparent Kd no less than 20 nM?
Result: 1.0

Q: Check the entry CGGUGACAUGAGGAUCACCCAUGUAAGGAUAUACCGGUUGAAGAUAAUAGCGACGGCGGAAGAAGGUACCUACA : does apparent Kd equal or exceed 20 nM?
Result: 1.0

Q: Assess whether reported apparent Kd for AAAUGAGCGCAUCCCUAACAUGAGGAUCACCCAUGUGCUACAGAGGAUAUCGUCACCAUAUCUCACGAGAAGGCUGGUAUAUUG sits at 20 nM or higher.
Result: 0.0

Q: Say whether GAUUGCGGUGUGAGGAUAUCUGUUUAACAAAAGCCAGAGAAGGCACAUGAGGAUCACCCAUGUAGAUGCCGGCC shows apparent Kd of 20 nM or more.
Result: 0.0

Q: Please tell me: is the sequence CAUACAUAACAUGAGGAUCACCCAUGUGACUCACUCUGAAAGCAGGAUAUAUUCGGUAAGCUACGAUAGAAGGGCUAUGCGUAA at or over 20 nM in terms of apparent Kd?
Result: 1.0

Q: Dear colleague, could you confirm whether GAUAAAGCAGGAUAUACAUACCGGCCAUGACUAAAAGAAGGACAUGAGGAUCACCCAUGUAGAAGGGCUUAAAA has apparent Kd at or above 20 nM?
Result: 0.0

Q: Could you tell me if the measured apparent Kd of UAGUAACAUGAGGAUCACCCAUGUGAGGAUAUCUGGCUAGGCUAAAGCAGAGAAACCAAGAGAAGGCACGGGAU reaches 20 nM or more?
Result: 0.0

Q: Entry ACACCUCACGGAAUACAUGAGGAUCACCCAUGUUGGGAAGGAAGAAGGUUCCGUGUUGAUUGCUGAAAGGAUAUUCGUGACCCG : is its apparent Kd no less than 20 nM?
Result: 1.0

Q: Does apparent Kd meet or surpass 20 nM for CAAGGGAAUACAGGAUAUUGCUGGAGUUGGGCGAGACAUGAGGAUCACCCAUGUUAUGCUAUAGUCAAGAAGGGUAUCUCGAGG ?
Result: 0.0

Q: Quick check: does UUCUUUGACGAGAAGGUCUCAACAUGAGGAUCACCCAUGUGAAUUAAUGGAACCAGGCCUGUUUAGAAGGAUAUCGCGGGAGUU have apparent Kd greater than or equal to 20 nM?
Result: 0.0

Q: Hello, I need to know if CCUCAACAUGAGGAUCACCCAUGUCAGGAUAUCUAGGAGACAUCACAUGCGUCCGAUGAGAGAAGGGACACAGU has measured apparent Kd not below 20 nM. Thanks!
Result: 1.0

Q: Does ACAGAACGAGGAUAUCCACUUUGAUACAUGAGGAUCACCCAUGUCCUGAAAGUGUUUCAGGGAGAAGGCGUACCUA have a reported apparent Kd of at least 20 nM?
Result: 0.0
